Data credit: patent US7045617

target: recombinant mouse protein kinase A (catalytic subunit) (mouse, UniProt P05132 2-351); experiment: PKA radiometric kinase assay, Dixon plot, adjusted to zero substrate
Side-chain parts run from the residue outwards. [ ]: non-standard residue; d: D form. Dap = NC[C@H](N)C(=O)O
Measured property: Ki (µM)
Value expressed in µM; do not type the unit.

For Ac-LRRA[Dap]([Ac-ATPγS])LG-OH [kemptide-ATPγS conjugate] the binder record lists Ki as 4.6
